- TESTED_TARGET: NIH3T3 cells expressing the full length KDR receptor (Homo sapiens)
- Construct: NIH3T3 cells expressing the full length KDR receptor
- Sequence (P35968 20-1356): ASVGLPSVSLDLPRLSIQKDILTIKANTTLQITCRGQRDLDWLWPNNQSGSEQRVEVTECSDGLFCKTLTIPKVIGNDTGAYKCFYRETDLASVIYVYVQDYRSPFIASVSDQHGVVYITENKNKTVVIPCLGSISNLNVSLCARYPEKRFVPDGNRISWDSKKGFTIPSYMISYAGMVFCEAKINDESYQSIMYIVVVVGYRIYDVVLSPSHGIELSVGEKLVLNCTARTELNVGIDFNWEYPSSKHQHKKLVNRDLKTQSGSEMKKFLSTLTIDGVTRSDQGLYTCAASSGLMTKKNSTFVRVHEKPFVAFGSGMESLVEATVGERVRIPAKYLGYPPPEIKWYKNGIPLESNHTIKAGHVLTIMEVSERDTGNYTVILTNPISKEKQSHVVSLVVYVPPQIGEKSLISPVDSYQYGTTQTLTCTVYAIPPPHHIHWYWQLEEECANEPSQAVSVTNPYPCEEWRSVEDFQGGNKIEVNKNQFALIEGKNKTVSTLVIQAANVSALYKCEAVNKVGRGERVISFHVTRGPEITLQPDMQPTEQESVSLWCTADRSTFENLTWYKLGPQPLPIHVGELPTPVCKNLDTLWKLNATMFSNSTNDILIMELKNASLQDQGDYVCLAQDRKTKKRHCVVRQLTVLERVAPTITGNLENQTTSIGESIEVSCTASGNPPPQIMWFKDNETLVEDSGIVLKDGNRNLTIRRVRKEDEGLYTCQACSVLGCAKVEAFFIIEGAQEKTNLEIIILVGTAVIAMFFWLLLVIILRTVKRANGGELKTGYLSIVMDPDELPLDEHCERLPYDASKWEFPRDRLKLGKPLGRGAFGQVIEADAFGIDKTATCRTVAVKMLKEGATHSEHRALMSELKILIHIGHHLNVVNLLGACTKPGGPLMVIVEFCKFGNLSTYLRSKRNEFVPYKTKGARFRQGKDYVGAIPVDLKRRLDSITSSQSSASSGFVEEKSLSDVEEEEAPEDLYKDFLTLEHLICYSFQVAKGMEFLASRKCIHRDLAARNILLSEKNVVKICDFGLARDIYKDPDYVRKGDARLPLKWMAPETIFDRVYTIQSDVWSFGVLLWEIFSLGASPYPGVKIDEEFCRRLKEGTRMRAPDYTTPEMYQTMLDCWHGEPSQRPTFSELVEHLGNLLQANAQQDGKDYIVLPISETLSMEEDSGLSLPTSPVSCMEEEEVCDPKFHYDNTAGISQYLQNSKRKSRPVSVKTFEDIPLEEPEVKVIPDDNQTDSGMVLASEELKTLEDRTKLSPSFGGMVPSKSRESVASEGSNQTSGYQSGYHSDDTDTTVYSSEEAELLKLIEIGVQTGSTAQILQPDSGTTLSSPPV
- ASSAY_PROCEDURE: Cell mechanistic assay - Inhibition of 3T3 KDR phosphorylation
- ASSAY_CONTEXT: VEGF (30 ng / ml) stimulated KDR phosphorylation in NIH3T3 cells, 30 minutes preincubation
pIC50: −log10 of the molar value.
As shown below, each of these molecules has a reported pIC50 value.

Reference set, count: 2
MOLECULE | pIC50
NC(=O)c1cc(Cc2cnc(Nc3ccc(Cl)cc3)c3ccccc23)ccn1 [Example 12] | 7.30 to 7.70
Brc1ccc2c(c1)CCN2c1nnc(Nc2ccc3ncsc3c2)c2ccccc12 [Example 97] | 6.40 to 7.30

Pending molecule:
Return pIC50 (reported value) for this molecule: Clc1ccc(Nc2nnc(OCc3ccncc3)c3sccc23)cc1 [Example 8]
7.30 to 7.70
